Target: T1, hTSLP-His (human, UniProt Q969D9 29-159, limits assumed)
T1 construct: bought; also called hTSLP (ACROBiosystems TSP-H52Hb); not shown: His tag
Test: competition ELISA, 7 nM TSLP-His pre-incubated with antibody; competitor Tezepelumab coated
Label 1 (yes) when IC50 is strictly below 6 nM; otherwise label 0 (no).

Answered examples (5):
BDG38.139 (antibody, V domains shown, IgG1) VH: QMQLVESGGGVVQPGRSLRLSCAASGFAFRTYGMHWVRQAPGKGLEWVAVIWDDGSNTHYADSVKGRFTITRDNSKNTLNLQMNSLRAEDTAVYYCVRAPQWYLSAEAFDLWGQGTMVTVSS VL: SYVLTQPPSVSVAPGETATITCGGNMIGAYLVHWYQQKPGQAPLLVIYDDVDRPARIPERFSGSNSGNTATLTISRVEAGDEADYYCQVWDHNSDHMVFGGGTKLTVL: 0 (no)
BDG38.116 (antibody, V domains shown, IgG1) VH: QMQLVESGGGVVQPGRSLTLSCAASGFEFRTYGMHWVRQAPGKGLEWVAVIWDDGSNTHYADSVKGRFTITRDNSKNTLNLQMNSLRVEDTAVYYCVRAPQWYLTAEAFDLWGQGTMVTVSS VL: SYVLTQPPSVSVAPGQTATITCGGNLIGARLVHWYQQKPGQAPVLVIYDDSDRPSRIPERFSGSNIGNTATLTIERVEAGDEADYYCQVWDYYSDTMVFGGGTKLTVL: 1 (yes)
BDG38.076 (antibody, V domains shown, IgG1) VH: QMQLVESGGGVVQPGRSLRLSCAASGFAFRTYGMHWVRQAPGKGLEWVAVIWDDGSATHYADSVKGRFTITRDNSKNTLNLQMNSLRAEDTAVYYCVRAPQWYLTAEAFDLWGQGTMVTVSS VL: SYVLTQPPSVSVAPGETASITCGGNMIGGYLVHWYQQKPGQAPLLVIYDDVDRPARIPERFSGSNSGNTATLTISRVEAGDEADYYCQVWDHDTNHMVFGGGTKLTVL: 1 (yes)
BDG38.082 (antibody, V domains shown, IgG1) VH: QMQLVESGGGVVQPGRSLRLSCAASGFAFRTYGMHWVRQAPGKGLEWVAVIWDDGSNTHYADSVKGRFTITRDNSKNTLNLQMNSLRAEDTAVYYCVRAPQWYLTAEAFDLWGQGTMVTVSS VL: SYVLTQPPSVSVAPGETATITCGGNMIGGYLVHWYQQKPGQAPVLVIYDDVDRPDRIPERFSGSNSGNTATLTISRVEAGDEADYYCQVWDHDTNQVVFGGGTKLTVL: 1 (yes)
BDG38.132 (antibody, V domains shown, IgG1) VH: QMQLVESGGGVVQPGRSLRLSCAASGFEFRTYGMHWVRQAPGKGLEWVGVIWDDGSNTHYADSVKGRFTITRDNSKNTLNLQMNSLRAEDTAVYYCVRAPQWYLTAEAFDLWGQGTMVTVSS VL: SYILTQPPSVSVAPGETATITCGGNLIGARLVHWYQQKPGQAPVLVIYDDSDRPSRIPERFSGSNIGNTATLTISRVEAGDEADYYCQVWDYSSDHMVFGGGTKLTVL: 0 (no)

Request: Given the entry BDG38.106 (antibody, V domains shown, IgG1) VH: QMQLVESGGGVVQPGRSLTLSCAASGFEFRTYGMHWVRQAPGKGLEWVAVIWDDGSNTVYADSVKGRFTITRDNSKNTLNLQMNSLRVEDTAVYYCVRAPQWYLTAEAFDLWGQGTMVTVSS VL: SYILTQPPSVSVAPGQTATITCGGNLIGSRLVHWYQQKPGQAPVLVIYDDSDRPSRIPERFSGSNIGNTATLTIEDVEEGDEADYYCQVWDHYSDHMVFGGGTKLTVL , would its reported IC50 be below 6 nM?
Result: 0 (no)

Request: Given the entry BDG38.128 (antibody, V domains shown, IgG1) VH: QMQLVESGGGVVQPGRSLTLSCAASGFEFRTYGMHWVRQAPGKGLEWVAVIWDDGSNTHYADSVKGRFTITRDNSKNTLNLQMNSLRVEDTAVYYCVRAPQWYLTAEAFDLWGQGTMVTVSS VL: SYILTQPPSVSVAPGETATITCGGNLIGAKLVHWYQQKPGQAPVLVIYDDSDRPSRIPERFSGSNSGNTATLTISDVEEGDEADYYCQVWDYYADTMVFGGGTKLTVL , would its reported IC50 be below 6 nM?
Result: 1 (yes)

Request: Given the entry BDG38.083 (antibody, V domains shown, IgG1) VH: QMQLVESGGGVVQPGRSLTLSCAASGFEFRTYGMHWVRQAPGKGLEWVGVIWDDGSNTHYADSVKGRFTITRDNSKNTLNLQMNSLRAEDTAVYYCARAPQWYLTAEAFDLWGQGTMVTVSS VL: SYILTQPPSVSVAPGQTATITCGGNLIGAKLVHWYQQKPGQAPVLVIYDDSDRPSRIPERFSGSNIGNTATLTISDVEEGDEADYYCQVWDYSSDTMVFGGGTKLTVL , would its reported IC50 be below 6 nM?
Result: 1 (yes)

Request: Given the entry BDG38.081 (antibody, V domains shown, IgG1) VH: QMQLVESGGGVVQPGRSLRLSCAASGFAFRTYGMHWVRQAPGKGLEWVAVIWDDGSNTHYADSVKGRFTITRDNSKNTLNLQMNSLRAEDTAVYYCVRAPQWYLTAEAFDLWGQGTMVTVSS VL: SYVLTQPPSVSVAPGQTARITCGGNMIGAYLVHWYQQKPGQAPLLVIYDDVDRPDRIPERFSGSNSGNTATLTISRVEAGDEADYYCQVWDHNTQQMVFGGGTKLTVL , would its reported IC50 be below 6 nM?
Result: 1 (yes)
